# Target Entity: ZAP-70 (Homo sapiens, UniProt P43403)
# Sequence (P43403 whole entry): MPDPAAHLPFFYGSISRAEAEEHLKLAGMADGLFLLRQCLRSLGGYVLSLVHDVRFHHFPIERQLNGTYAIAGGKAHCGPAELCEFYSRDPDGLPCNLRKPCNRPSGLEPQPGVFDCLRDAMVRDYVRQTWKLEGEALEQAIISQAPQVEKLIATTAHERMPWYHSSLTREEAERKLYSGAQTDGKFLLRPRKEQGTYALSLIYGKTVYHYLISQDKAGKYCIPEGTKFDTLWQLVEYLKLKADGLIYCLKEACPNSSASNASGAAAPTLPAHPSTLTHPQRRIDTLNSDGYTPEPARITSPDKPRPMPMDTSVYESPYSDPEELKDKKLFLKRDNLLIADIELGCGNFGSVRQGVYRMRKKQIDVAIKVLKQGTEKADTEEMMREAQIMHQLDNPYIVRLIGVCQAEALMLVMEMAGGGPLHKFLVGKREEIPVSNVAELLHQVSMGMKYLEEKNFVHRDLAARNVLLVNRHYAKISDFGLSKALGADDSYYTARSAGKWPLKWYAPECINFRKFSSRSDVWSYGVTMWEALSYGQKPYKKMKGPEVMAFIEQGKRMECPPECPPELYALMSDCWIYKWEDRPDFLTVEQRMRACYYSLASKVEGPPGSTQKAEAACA
# Measurement Description: DELFIA assay (ZAP-70 kinase, phosphorylation of biotinylated poly(glu,tyr))
# Type: biochemical
# Study Conditions: ZAP-70 DELFIA, class symbols; read-out: Activity (IC50 in vitro)
Quantity Measured: IC50

Challenge: Give IC50 for C[C@H](c1ccccc1)N(C)c1cc(C(=O)N2CCC[C@H]2CN2CCCC2)c2cc(-c3ccc(C#N)cc3)ccc2n1 [Compound 200]
Response given: > 10 µM

Challenge: Give IC50 for C[C@H]1CCN(C(=O)c2cc(NCc3ccc(Cl)cc3)nc3ccc(-c4ccc5c(c4)OCO5)cc23)[C@@H]1CN1CCCC1 [Compound 148]
Response given: 1 to 10 µM

Challenge: Give IC50 for CN(CCc1ccccc1)c1cc(C(=O)N2CCC[C@H]2CN2CCCC2)cc(N2CCOCC2)n1 [Compound 370]
Response given: > 10 µM

Challenge: Give IC50 for CN(C)c1ccc(Nc2cc(/C=C/c3ccc(F)cc3)nc3ccc(-c4ccc5c(c4)OCO5)cc23)cc1 [Compound 412]
Response given: > 10 µM

Challenge: Give IC50 for O=C(c1cc(CCc2ccc(Cl)cc2)nc2ccc(-c3ccc4c(c3)OCO4)cc12)N1CCC[C@H]1CN1CCCC1 [Compound 136]
Response given: 1 to 10 µM

Challenge: Give IC50 for CN(CCc1ccccc1)c1cc(C(=O)N2CCC[C@H]2CN2CCCC2)cc(-c2ccccc2)n1 [Compound 367]
Response given: > 10 µM

Challenge: Give IC50 for O=C(c1cc(NCc2ccc(C(F)(F)F)cc2)nc2ccc(-c3ccc4ncsc4c3)cc12)N1CCC[C@H]1CN1CCCC1 [Compound 352]
Response given: < 1 µM
